assay: Intrinsic clearance in human hepatocytes at 0.3 uM incubated for 90 mins by LC/MS/MS analysis; format: ADME, cell-based, Hepatocyte; details: read-out: CLH
Label satisfied when CLint scaled at 0.3 µM >= 200 mL/min/kg; otherwise not satisfied.

Would you please look over these solved cases?
FC1CN(C2COC2)CCC1c1cc2nc(Nc3cnn(C4CC4(F)F)c3Cl)ncc2cc1Cl (centres undefined) | not satisfied
FC1CN(C2COCC2F)CCC1c1cc2nc(Nc3cnn(C4CC4(F)F)c3Cl)ncc2cc1Cl (centres undefined) | satisfied
O[C@H]1COC[C@H]1N1CC[C@@H](c2cc3nc(Nc4cnn([C@@H]5CC5(F)F)c4Cl)ncc3cc2Cl)[C@H](F)C1 | not satisfied
FC(F)Cn1ncc(Nc2ncc3cc(Cl)c(C4CCN(C5COC5)CC4F)cc3n2)c1Cl (centres undefined) | satisfied
Clc1cc2cnc(Nc3cnn(C4CC4)c3Cl)nc2cc1N1CCN(C2COC2)CC1 | not satisfied
Clc1cc2cnc(Nc3cnn(C4CC4)c3Cl)nc2cc1C1CCN(C2COC2)CC1 | not satisfied

Could you please find out whether FC1CN(C2CCOC2)CCC1c1cc2nc(Nc3cnn(C4CC4(F)F)c3Cl)ncc2cc1Cl (centres undefined) has CLint scaled at 0.3 µM that meets 200 mL/min/kg or exceeds it? satisfied

Could you please find out whether CC(C)(O)Cn1ncc(Nc2ncc3cc(Cl)c(C4CCN(C5COC5)CC4)cc3n2)c1Cl has CLint scaled at 0.3 µM that meets 200 mL/min/kg or exceeds it? not satisfied

Could you please find out whether Cc1c(Nc2ncc3cccc(C4CC4)c3n2)cnn1C1CCOCC1 has CLint scaled at 0.3 µM that meets 200 mL/min/kg or exceeds it? not satisfied

Could you please find out whether Cc1c(Nc2ncc3cc(Cl)c(C4CCN(C5COC5)CC4)cc3n2)cnn1C1CC1 has CLint scaled at 0.3 µM that meets 200 mL/min/kg or exceeds it? not satisfied

Could you please find out whether Cc1c(Nc2ncc3ccc(N4C(=O)OC[C@@H]4C)cc3n2)cnn1C1CCOCC1 has CLint scaled at 0.3 µM that meets 200 mL/min/kg or exceeds it? not satisfied

Could you please find out whether FC1CN(C2COC2)CCC1c1cc2nc(Nc3cnn(C4CC4)c3Cl)ncc2cc1Cl (centres undefined) has CLint scaled at 0.3 µM that meets 200 mL/min/kg or exceeds it? not satisfied

Could you please find out whether N#CC1(c2ccc3cnc(Nc4cnn(C5CCOCC5)c4Cl)nc3c2)CC12CC2 (centres undefined) has CLint scaled at 0.3 µM that meets 200 mL/min/kg or exceeds it? satisfied

Could you please find out whether Cc1c(Nc2ncc3cc(Cl)c(C4CCN([C@@H]5COC[C@@H]5O)CC4)cc3n2)cnn1[C@@H]1CC1(F)F has CLint scaled at 0.3 µM that meets 200 mL/min/kg or exceeds it? not satisfied

Entry source: ChEMBL document CHEMBL5042510
